assay: antimalarial activity against Dd2 strain (AID 2302); conditions: P. falciparum Dd2 in RBCs, LDH growth readout, 72 h; at 2 µM
Calls of active or inactive are those of the source.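 Rule for the calls: active = growth inhibition above 50% at the single 2 µM test dose, taken to imply half-maximal potency below 2 µM; inactive = the rest.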
Classes to choose from: active, inactive

Solved cases below.
COc1cccc(OC)c1CN1CCC(N(C)CCCCCCCCCN2CCC(OC(=O)Nc3ccccc3-c3ccccc3)CC2)CC1: active
c1cncc(-c2cc(N3CCCCC3)nc(-c3ccncc3)n2)c1: inactive

Q) How did this test come out for COc1ccc2nccc(NN=Cc3ccccc3)c2c1 ?
A) active

Q) Follow-up item: CCNC(C)(C)CN(Cc1ccc(-c2ccc(C(F)(F)F)cc2)cc1)C(=O)Cn1c(SCc2ccc(F)cc2)nc(=O)c2c1CCC2
A) active
